target: Endothelial lipase (EL) (Homo sapiens (Human)); assay: EL assay: endothelial lipase activity with fluorescent substrate A10070 in DMPG vesicles; type: biochemical
Sequence (Q9Y5X9 21-500): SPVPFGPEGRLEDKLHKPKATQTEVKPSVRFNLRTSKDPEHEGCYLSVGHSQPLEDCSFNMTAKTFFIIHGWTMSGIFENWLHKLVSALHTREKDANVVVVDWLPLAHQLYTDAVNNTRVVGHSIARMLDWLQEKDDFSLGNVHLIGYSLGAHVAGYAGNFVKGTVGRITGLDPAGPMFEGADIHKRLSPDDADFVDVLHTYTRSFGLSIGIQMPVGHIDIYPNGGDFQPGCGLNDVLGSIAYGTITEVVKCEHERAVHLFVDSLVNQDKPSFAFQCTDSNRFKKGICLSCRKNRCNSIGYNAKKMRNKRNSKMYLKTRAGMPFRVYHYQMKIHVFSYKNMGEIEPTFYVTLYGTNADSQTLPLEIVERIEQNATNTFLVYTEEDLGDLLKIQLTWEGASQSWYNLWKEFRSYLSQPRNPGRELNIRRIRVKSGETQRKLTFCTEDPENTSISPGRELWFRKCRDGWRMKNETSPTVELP
endpoint: pIC50
// pIC50 is dimensionless: -log10 of concentration (M)

Please give the measured pIC50 for this molecule: NS(=O)(=O)CCNC(=O)C(c1nc2ccc(-c3cncnc3)cc2s1)S(=O)(=O)Cc1ccccc1 (centres unmarked)
7.86

Please give the measured pIC50 for this molecule: CC(C)(C)OC(=O)N1CC=C(c2ccc3sc(C(C(=O)NCCS(N)(=O)=O)S(C)(=O)=O)nc3c2)CC1 (centres unmarked)
8.51

Please give the measured pIC50 for this molecule: COC[C@H](C)NC(=O)c1ccc(-c2ccc3nc(C(C(=O)NCCS(N)(=O)=O)S(=O)(=O)Cc4ccc(OC(F)(F)F)cc4)sc3c2)cc1 (some centres unmarked)
8.28

Please give the measured pIC50 for this molecule: COCCS(=O)(=O)C(C(=O)NCCS(N)(=O)=O)c1nc2cc(-c3ccc(F)nc3)ccc2s1 (centres unmarked)
8.89

Please give the measured pIC50 for this molecule: CS(=O)(=O)C(C(=O)NCCS(N)(=O)=O)c1nc2cc(C(=O)N3CC(F)(F)C3)ccc2s1 (centres unmarked)
7.30

Please give the measured pIC50 for this molecule: Cn1cc(-c2ccc3nc(C(C(=O)NCCS(N)(=O)=O)S(=O)(=O)Cc4cccc(C(F)(F)F)c4)sc3c2)ccc1=O (centres unmarked)
8.36

Please give the measured pIC50 for this molecule: NS(=O)(=O)CCNC(=O)C(c1nc2ccc(-c3ccc(S(=O)(=O)NCCO)cc3)cc2s1)S(=O)(=O)Cc1ccc(F)cc1 (centres unmarked)
8.01

Please give the measured pIC50 for this molecule: NS(=O)(=O)CCNC(=O)C(c1nc2ccc(-c3cncnc3)cc2s1)S(=O)(=O)Cc1ccc(F)cc1 (centres unmarked)
7.74

Please give the measured pIC50 for this molecule: CS(=O)(=O)C(C(=O)NCCS(N)(=O)=O)c1nc2ccc(-c3cccc(Cl)c3)cc2s1 (centres unmarked)
9.10

Please give the measured pIC50 for this molecule: CS(=O)(=O)C(C(=O)NCCS(N)(=O)=O)c1nc2ccc(-c3ccc(-c4ncco4)cc3)cc2s1 (centres unmarked)
8.08

From: patent US8987314B2
